# System: S. aureus
# measurement_description: Broth dilution MIC determination (CLSI) against S. aureus strains
# Format: cell-based
# setup_conditions: Staphylococcus aureus, read-out: MIC S. aureus erm A genotype
# Description: Minimum inhibitory concentrations (MICs) for macrolides described herein have been determined for unique strains of S. aureus, S. pneumoniae, S. pyogenes, E. faecalis, E. coli, A. baumannii, K. pneumoniae, P. aeruginosa, and H. influenzae, including several multidrug-resistant strains, with a special focus on macrolide resistant mechanisms. Azithromycin and solithromycin were included as control compounds. CLSI standard procedures for broth dilution MIC determination were used. […]

compound	MIC
CC[C@H]1OC(=O)[C@H](C)C(=O)[C@H](C)[C@@H](O[C@@H]2OC(Cn3cc(-c4cccc(N)n4)nn3)CC(N(C)C)C2O)[C@](C)(OC)C[C@@H](C)CN[C@H](C)[C@H]2N(CCCCn3cc(-c4cccc(N)c4)nn3)C(=O)O[C@]12C (some centres unmarked)	> 32 µg/mL
CC[C@H]1OC(=O)[C@H](C)C(=O)[C@H](C)[C@@H](O[C@@H]2OC(CNC=N)CC(N(C)C)C2O)[C@](C)(OC)C[C@@H](C)CN[C@H](C)[C@H]2N(CCCCn3cc(-c4cccc(N)c4)nn3)C(=O)O[C@]12C (some centres unmarked)	> 32 µg/mL

====

# System: S. aureus
# measurement_description: Broth dilution MIC determination (CLSI) against S. aureus strains
# Assay type: cell-based
# setup_conditions: Staphylococcus aureus, read-out: MIC S. aureus erm A genotype
Quick list: MIC per entry.
readout_type: MIC

compound	test_target	endpoint_result
CC[C@H]1OC(=O)[C@H](C)C(=O)[C@H](C)[C@@H](O[C@@H]2OC(CNC(=O)c3cc[nH]n3)CC(N(C)C)C2O)[C@](C)(OC)C[C@@H](C)CN[C@H](C)[C@H]2N(CCCCn3cc(-c4cccc(N)c4)nn3)C(=O)O[C@]12C (stereo partly shown)	S. aureus	> 32 µg/mL
CC[C@H]1OC(=O)[C@H](C)C(=O)[C@H](C)[C@@H](O[C@@H]2OC(CNC(=O)CNC(C)(C)C)CC(N(C)C)C2O)[C@](C)(OC)C[C@@H](C)CN[C@H](C)[C@H]2N(CCCCn3cc(-c4cccc(N)c4)nn3)C(=O)O[C@]12C (stereo partly shown)	S. aureus	> 32 µg/mL
CC[C@H]1OC(=O)[C@H](C)C(=O)[C@H](C)[C@@H](O[C@@H]2OC(CNC(=O)CN)CC(N(C)C)C2O)[C@](C)(OC)C[C@@H](C)CN[C@H](C)[C@H]2N(CCCCn3cc(-c4cccc(N)c4)nn3)C(=O)O[C@]12C (stereo partly shown)	S. aureus	> 32 µg/mL
CC[C@H]1OC(=O)[C@H](C)C(=O)[C@H](C)[C@@H](O[C@@H]2OC(CN)CC(N(C)C)C2O)[C@](C)(OC)C[C@@H](C)CN[C@H](C)[C@H]2N(CCCCn3cc(-c4cccc(N)c4)nn3)C(=O)O[C@]12C (stereo partly shown)	S. aureus	32 µg/mL

====

# System: K. pneumoniae
# measurement_description: Broth dilution MIC determination (CLSI) against K. pneumoniae strains
# Assay type: cell-based
# setup_conditions: K pneumomae ATCC10031, strain MP-14 (Table N2)
Quick list: MIC per entry.
readout_type: MIC (µg/mL)

molecule	test_target	quantity_unit	value_relation_sign	endpoint_result
CCC1OC(=O)C(C)C(=O)C(C)C(OC2OC(C)CC(N3CCOC3CO)C2O)C(C)(OC)CC(C)CNC(C)C2N(CCCCn3cc(-c4cccc(N)c4)nn3)C(=O)OC12C (centres unmarked)	K. pneumoniae	µg/mL	>	64
CCC1OC(=O)C(C)C(=O)C(C)C(OC2OC(C)CC(N(C)Cc3cccnc3)C2O)C(C)(OC)CC(C)CNC(C)C2N(CCCCn3cc(-c4cccc(N)c4)nn3)C(=O)OC12C (centres unmarked)	K. pneumoniae	µg/mL	=	8
CCC1OC(=O)C(C)C(=O)C(C)C(OC2OC(C)CC(N(CCO)CCO)C2O)C(C)(OC)CC(C)CNC(C)C2N(CCCCn3cc(-c4cccc(N)c4)nn3)C(=O)OC12C (centres unmarked)	K. pneumoniae	µg/mL	=	32
CCC1OC(=O)C(C)C(=O)C(C)C(OC2OC(C)CC(N(C)CC#N)C2O)C(C)(OC)CC(C)CNC(C)C2N(CCCCn3cc(-c4cccc(N)c4)nn3)C(=O)OC12C (centres unmarked)	K. pneumoniae	µg/mL	=	8
CCC1OC(=O)C(C)C(=O)C(C)C(OC2OC(C)CC(NCc3cccnc3)C2O)C(C)(OC)CC(C)CNC(C)C2N(CCCCn3cc(-c4cccc(N)c4)nn3)C(=O)OC12C (centres unmarked)	K. pneumoniae	µg/mL	=	16

====

# Tested on: H. influenzae
# measurement_description: Broth dilution MIC determination (CLSI) against H. influenzae strains
# Type: cell-based
# setup_conditions: Haemophilus influenzae, ATCC49247, ATCC49247; read-out: MIC H. influenzae ATCC49247
Label key: yes means MIC under 8 µg/mL; no means MIC of 8 µg/mL or more.

compound	test_target	label_class
CC[C@H]1OC(=O)[C@H](C)C(=O)[C@H](C)[C@@H](O[C@@H]2OC(Cn3cc(-c4cccc(N)n4)nn3)CC(N(C)C)C2O)[C@](C)(OC)C[C@@H](C)CN[C@H](C)[C@H]2N(CCCCn3cc(-c4cccc(N)c4)nn3)C(=O)O[C@]12C (some centres unmarked)	H. influenzae	yes
C=CCOC(=O)NCC1CC(N(C)C)C(O)[C@H](O[C@@H]2[C@@H](C)C(=O)[C@@H](C)C(=O)O[C@H](CC)[C@@]3(C)OC(=O)N(CCCCn4cc(-c5cccc(N)c5)nn4)[C@@H]3[C@@H](C)NC[C@H](C)C[C@@]2(C)OC)O1 (some centres unmarked)	H. influenzae	yes
CC[C@H]1OC(=O)[C@H](C)C(=O)[C@H](C)[C@@H](O[C@@H]2OC(CNC(=O)CNC(C)(C)C)CC(N(C)C)C2O)[C@](C)(OC)C[C@@H](C)CN[C@H](C)[C@H]2N(CCCCn3cc(-c4cccc(N)c4)nn3)C(=O)O[C@]12C (some centres unmarked)	H. influenzae	no
CC[C@H]1OC(=O)[C@H](C)[C@@H](O[C@H]2C[C@@](C)(OC)[C@@H](O)[C@H](C)O2)[C@H](C)[C@@H](O[C@@H]2O[C@H](C)C[C@H](N(C)C)[C@H]2O)[C@](C)(O)C[C@@H](C)CN(C)[C@H](C)[C@@H](O)[C@]1(C)O [Azithromycin, azithromycin, reference compound]	H. influenzae	yes
CC[C@H]1OC(=O)[C@H](C)C(=O)[C@H](C)[C@@H](O[C@@H]2OC(Cn3cc(-c4cnc(N)s4)nn3)CC(N(C)C)C2O)[C@](C)(OC)C[C@@H](C)CN[C@H](C)[C@H]2N(CCCCn3cc(-c4cccc(N)c4)nn3)C(=O)O[C@]12C (some centres unmarked)	H. influenzae	yes
CC[C@H]1OC(=O)[C@H](C)C(=O)[C@H](C)[C@@H](O[C@@H]2OC(CN)CC(N(C)C)C2O)[C@](C)(OC)C[C@@H](C)CN[C@H](C)[C@H]2N(CCCCn3cc(-c4cccc(N)c4)nn3)C(=O)O[C@]12C (some centres unmarked)	H. influenzae	no

====

Quick list: MIC E. faecalis van resistant per entry.
# Tested on: E. faecalis
# measurement_description: Broth dilution MIC determination (CLSI) against E. faecalis strains
# Type: cell-based
# setup_conditions: van resistant, Strain No. UNT-039
readout_type: MIC E. faecalis van resistant

compound	readout_type	endpoint_result
CCC1OC(=O)C(C)C(=O)C(C)C(OC2OC(C)CC(n3ccnc3)C2O)C(C)(OC)CC(C)CNC(C)C2N(CCCCn3cc(-c4cccc(N)c4)nn3)C(=O)OC12C (stereo not shown)	MIC E. faecalis van resistant	>64 µg/mL
C=CCOCC1CC(N(C)C)C(O)C(OC2C(C)C(=O)C(C)C(=O)OC(CC)C3(C)OC(=O)N(CCCCn4cc(-c5cccc(N)c5)nn4)C3C(C)NCC(C)CC2(C)OC)O1 (stereo not shown)	MIC E. faecalis van resistant	>64 µg/mL
CCC1OC(=O)C(C)C(=O)C(C)C(OC2OC(C)CC(NCC#N)C2O)C(C)(OC)CC(C)CNC(C)C2N(CCCCn3cc(-c4cccc(N)c4)nn3)C(=O)OC12C (stereo not shown)	MIC E. faecalis van resistant	>64 µg/mL
CCC1OC(=O)C(C)C(=O)C(C)C(OC2OC(C)CC(n3cccc3)C2O)C(C)(OC)CC(C)CNC(C)C2N(CCCCn3cc(-c4cccc(N)c4)nn3)C(=O)OC12C (stereo not shown)	MIC E. faecalis van resistant	>32 µg/mL
CCC1OC(=O)C(C)C(=O)C(C)C(OC2OC(C)CC(N3CCOCC3)C2O)C(C)(OC)CC(C)CNC(C)C2N(CCCCn3cc(-c4cccc(N)c4)nn3)C(=O)OC12C (stereo not shown)	MIC E. faecalis van resistant	>64 µg/mL
CCC1OC(=O)C(C)C(=O)C(C)C(OC2OC(C)CC(NCC(=O)O)C2O)C(C)(OC)CC(C)CNC(C)C2N(CCCCn3cc(-c4cccc(N)c4)nn3)C(=O)OC12C (stereo not shown)	MIC E. faecalis van resistant	>64 µg/mL
CCC1OC(=O)C(C)C(=O)C(C)C(OC2OC(CNCc3ccc(F)cc3)CC(N(C)C)C2O)C(C)(OC)CC(C)CNC(C)C2N(CCCCn3cc(-c4cccc(N)c4)nn3)C(=O)OC12C (stereo not shown)	MIC E. faecalis van resistant	>64 µg/mL
